# protocol_text: in vitro
# measurement_context: human, hela cells, % viability
# label = 1 (yes) if viability at 28.5 h, 10 µM < 90% else 0 (no)

Is it true that viability at 28.5 h, 10 µM reported for CN(C)CCN(C)c1cc(C(F)(F)F)nc(NCc2ccc(Cl)cc2)n1 [CBK009668] is less than 90%?
0 (no)

What do you get for O=C(CSCc1ccc(C(=O)O)cc1)Nc1ccc2ccccc2c1 [CBK299833] ?
1 (yes)

What do you get for COc1ccccc1NC(=O)Cn1cnc2sc(C(=O)NC(C)C)c(C)c2c1=O [CBK071847] ?
0 (no)

What do you get for Cc1noc(C)c1CCC(=O)N1CC[C@H]2NC(=O)c3ccccc3OCCCCC[C@H]2C1 [CBK292036] ?
0 (no)

What do you get for COc1ccc(CCN(Cc2ccc(Cl)c(Cl)c2)C(=O)NCc2ccc(C#N)cc2)cc1OC [CBK158771] ?
0 (no)

What do you get for COc1ccc(-c2cc(C(=O)NCC3CCNCC3)cnc2-c2ccc(Cl)cc2)cn1 [CBK036700] ?
0 (no)

What do you get for CC(C)Cn1c(=O)[nH]c2ncc(-c3cccc4cccnc34)nc21 [CBK064400] ?
1 (yes)

What do you get for O=c1c2ccccc2nc(COc2ccccc2)n1O [CBK288482] ?
0 (no)

What do you get for CC(=O)c1c(C)nn(CCC(=O)Nc2ccc(Cl)c(Cl)c2)c1C [CBK269829] ?
0 (no)

What do you get for c1ccc(OCCOc2nccnc2-c2ccsc2)cc1 [CBK106773] ?
0 (no)

What do you get for COC(=O)c1ccc(CC(C)C)nc1SC1=NCCCN1 [CBK005294C] ?
0 (no)

What do you get for N#Cc1c2c(c(Nc3ccc(C4CCCCC4)cc3)n3c1nc1ccccc13)CCC2 [CBK263122] ?
0 (no)
